- System Name: Kv1.1 (Homo sapiens, UniProt Q09470)
- Sequence (Q09470 whole entry): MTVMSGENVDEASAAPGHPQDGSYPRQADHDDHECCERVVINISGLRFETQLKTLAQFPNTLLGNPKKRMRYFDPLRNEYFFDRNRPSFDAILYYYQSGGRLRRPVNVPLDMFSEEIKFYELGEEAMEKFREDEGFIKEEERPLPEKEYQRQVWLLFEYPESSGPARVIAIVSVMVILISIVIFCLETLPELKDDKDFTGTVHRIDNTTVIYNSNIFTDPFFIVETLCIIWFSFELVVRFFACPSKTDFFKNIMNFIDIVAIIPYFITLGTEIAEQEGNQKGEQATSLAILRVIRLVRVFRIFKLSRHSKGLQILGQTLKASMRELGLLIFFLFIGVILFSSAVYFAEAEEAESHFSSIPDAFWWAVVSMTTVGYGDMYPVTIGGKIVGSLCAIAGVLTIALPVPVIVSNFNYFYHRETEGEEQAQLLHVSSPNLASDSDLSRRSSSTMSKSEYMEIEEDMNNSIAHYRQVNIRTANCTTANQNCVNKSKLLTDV
- Procedure Text: two-electrode voltage clamp in Xenopus oocytes, reference opener
Observable: pEC50
To interpret pEC50, take it as minus log10 of a concentration measured in moles per litre.

What value of pEC50 has been recorded for this entry: O=C(O)c1cccnc1Nc1cccc(C(F)(F)F)c1
3.46
